Assay: The compound was evaluated for its stability in RPMI containing 10 % of FCS.
Assay type: physicochemical
Conditions: cattle, RPMI culture medium with 10% FCS
parameter_measured: half-life (h)
Give the number; h is assumed, so skip it.

stdin: # get_value(readout='half-life', item= Nc1ccn(C2CCC(COP(=O)(O)OC[C@@H]3CC[C@H](n4ccc(N)nc4=O)O3)O2)c(=O)n1 (stereo partly specified) )
stdout: 22

---

Test: The compound was evaluated for its stability in RPMI containing 10 % of heat-inactivated FCS.
Type: physicochemical
Conditions: cattle, RPMI culture medium with 10% heat-inactivated FCS
parameter_measured: half-life (h)
Respond with the bare value in h.

stdin: Bench note: what half-life did Nc1ccn(C2CCC(COP(=O)(O)OC[C@@H]3CC[C@H](n4ccc(N)nc4=O)O3)O2)c(=O)n1 (stereo partly specified) show?
stdout: 48
